Tested on: UACC-257 melanoma
Experiment: NCI-60 one-dose screen, 48 h (100 = growth as untreated, 0 = no growth, -100 = all killed)
Conditions: 10 µM
Description: Cells are grown in 96 well plates and exposed to the test compound for 48 hours. Compounds are tested at a single concentration, which is 10^-5 M for most compounds. The reported endpoint is percent growth (GI% or GIPRCNT), where numbers from 0 - 100% represent growth inhibition, and numbers from -100% - 0 represent cell death. For example, a value of 40 represents 60% growth inhibition. A value of 0 means no net growth occurred over the course of the experiment. […]
Compounds without any hit were thinned out: in the full panel of roughly 83,000, 20% have a hit.
value.kind: growth (%)
All answers are understood in %, so give the number only.

Sample records with growth:
[[record]]
compound = "CCN(CC)CCNC(=O)c1ccc(NC(C)=O)cc1"
value_measured = 117

[[record]]
compound = "COc1cc(-c2nc(-c3nnc(-c4ccc(F)c(Cl)c4)o3)c3ccccn23)cc(OC)c1OC"
value_measured = 40.3

[[record]]
compound = "COc1cc(-c2cc(/C=C3\\C(=O)Nc4ccccc43)[nH]n2)cc(OC)c1OC"
value_measured = 23


Now take the following compound into account.
Ask: Please give the measured growth for this compound: `COc1cc(/C=C/C(=O)c2ccc(Cl)cc2)ccc1OS(=O)(=O)c1ccc(C)cc1`
Result: 110
